Provide the recorded folding enthalpy for the entries that follow.
- assay_procedure: folding enthalpy; higher = less favourable; fluorescence melt of hairpins on a sequencing array, two-state fit
- measurement_context: sodium 0.088 M
Give your result in kcal/mol as a bare value.

Asked: I have this sequence here, GCAATGCGAAAGCATGC (((.(((....)))))) , and I need its recorded folding enthalpy.
Given back: -22.9

Asked: Consider the sequence shown here: GCGAAACGAAAGTTACGC (((.(((....))).))) What is its recorded folding enthalpy?
Given back: -40.1

Asked: Look up folding enthalpy for this sequence: GATTATGGAAACATAATC (((((((....)))))))
Given back: -38.2

Asked: Using the record for GATCGGGCTCCGATC ((((((...)))))) , report its folding enthalpy.
Given back: -35.8

Asked: Fill in the blank: the reported folding enthalpy of GGGAATCGAAAGATACCC (((.(((....))).))) is ____.
Given back: -30.1

Asked: So what does the record say about folding enthalpy for GATCGAGTACTCGATC ((((((....)))))) ?
Given back: -43.4

Asked: What does the data say about its folding enthalpy? Entry: GTGTACGAAAGTATGCAC ((((((....)))..)))
Given back: -17.7

Asked: Dear colleague, I am looking for the recorded folding enthalpy of the following sequence: GGGGACGAAAGTCGGCCC ((((((....)))..)))
Given back: -27.2

Asked: For the sequence GAATGCGAAAGCAATTTC ((((((....)))..))) , what folding enthalpy is on record?
Given back: -9.54

Asked: Query (sequence): GCCTTGGCGAAAGCCGGC (((..(((....)))))) ; field requested: folding enthalpy
Given back: -12.9

Asked: Need folding enthalpy, item GATCCATCGATGGATC ((((((....))))))
Given back: -47.8

Asked: Quick check: folding enthalpy of GCTGGGCGAAAGCCAGC (((.(((....)))))) ?
Given back: -22.4

Asked: I am curious: what folding enthalpy value has been reported for GCACTCGGAAACGAGTAC (.(((((....))))).) ?
Given back: -13.6

Asked: // returns reported folding enthalpy for input GGATGCGAAAGCAGCTCC ((((((....)))..)))
Given back: -11.3

Asked: GET /values?readout=folding enthalpy&item= GATCCTAGCCAGGATC ((((((....))))))
Given back: -40.2

Asked: Fill in the blank: the reported folding enthalpy of GCACAGGGAAACCTGCGC ((.((((....)))).)) is ____.
Given back: -44.3

Asked: Can you look up the measured folding enthalpy of GCGTATCACGC ((((...)))) for me?
Given back: -34.2

Asked: Fill in: folding enthalpy of GCCACCTCGAAAGAGGGC (((..(((....)))))) is ___
Given back: -9.58

Asked: Could you share which folding enthalpy value was measured for GATCCTGACCAGGATC ((((((....)))))) ?
Given back: -45.1

Asked: Which folding enthalpy value belongs to GCTTAGCGAAAGCTATGC ((.((((....)))).)) ?
Given back: -26.6

Asked: Which folding enthalpy is listed for GCGGACGGAAACACCCGC ((((..(....)..)))) ?
Given back: -26.9

Asked: State the recorded folding enthalpy for this entry: CGACCGGAAACGGGTTCG ((((((....)))..)))
Given back: -21.4

Asked: Please report the recorded folding enthalpy for GTGAACGAAAGTTAGCAC ((((((....)))..))) .
Given back: -12.5

Asked: What measured folding enthalpy goes with GGCACCGGAAACGGCACC ((..(((....)))..)) ?
Given back: -15.8

Asked: Field request: folding enthalpy | item: GCCGTTACGAAAGTAGGC (((..(((....))))))
Given back: -33.1

Asked: Field request: folding enthalpy | item: GATCAGTAGCCTGATC ((((((....))))))
Given back: -31.4

Asked: Which folding enthalpy value is on record for GATCGTTAAACGATC ((((((...)))))) ?
Given back: -34.6

Asked: If you can, please state the reported folding enthalpy value of GCCCGGCGAAAGCTGTGC ((.(.((....)).).)) .
Given back: -19.7

Asked: # query: folding enthalpy of entry GTGCGGCGAAAGCCACAC (((.(((....))).)))
Given back: -29.2

Asked: Looking for the measured folding enthalpy of GTTACCGGAAACGATAAC ((((.((....)).)))) , can you help?
Given back: -26.6

Asked: Given the entry GCGTCCGAAAGGAACCGC ((((((....)))..))) , report its measured folding enthalpy.
Given back: -20.3

Asked: Consider the sequence GGATACGAAAGTAGATCC ((((((....)))..))) and give its measured folding enthalpy.
Given back: -17.9

Asked: Requested read-out: folding enthalpy. Entry: GATCTTGAGAAAGATC ((((((....))))))
Given back: -32.1

Asked: Tell me the measured folding enthalpy of GTGATCGAAAGATGACAC ((((((....)))..))) , please.
Given back: -16.2

Asked: I'd like to know its folding enthalpy. The sequence in question is GATCCTCCAGAGGATC ((((((....))))))
Given back: -35.5

Asked: Item GTGAGCGAAAGCTCCAC ((((((....))).))) has what recorded folding enthalpy?
Given back: -11.3

Asked: Find the recorded folding enthalpy belonging to GATCCCGGCGGGATC ((((((...)))))) and report it.
Given back: -36.5

Asked: Data request, read-out folding enthalpy, for GGCTCAGGAAACTGAGTC (.(((((....))))).)
Given back: -40.2

Asked: Could you share which folding enthalpy value was measured for GATCTAAGAATAGATC ((((((....)))))) ?
Given back: -20.4

Asked: I would be grateful if you could share the reported folding enthalpy for GATCATGTAGATGATC ((((((....)))))) .
Given back: -38.9

Asked: Consider the sequence GCCCCTCGAAAGAGCGGC (((.(((....))).))) and give its measured folding enthalpy.
Given back: -33

Asked: What value of folding enthalpy has been recorded for this entry: GGTGAGTCGAAAGACACC (((..(((....))))))
Given back: -17.9

Asked: // returns reported folding enthalpy for input GCGCAGCGAAAGCTACGC (((.(((....))).)))
Given back: -35

Asked: Fill blank: measured folding enthalpy of the sequence GTAGCGTCGAAAGACTAC (((..(((....)))))) is ____.
Given back: -9.24

Asked: Look at this sequence and give its reported folding enthalpy. GGGACGGGAAACCGTTCC ((.((((....)))).))
Given back: -35.2

Asked: Quick check: folding enthalpy of GTGAGTGGAAACACTTGC (..((((....))))..) ?
Given back: -23.9

Asked: For GTCGGGGGAAACCCTGGC (.(.(((....))).).) , what is its reported folding enthalpy?
Given back: -21.8

Asked: // query folding enthalpy value for entry GCGATTGGAAACAATTGC ((.((((....)))).))
Given back: -35.4

Asked: I have this sequence here, GCGTAACAACGC ((((....)))) , and I need its recorded folding enthalpy.
Given back: -27

Asked: # lookup: folding enthalpy of GCGATGGGAAACCGTTGC ((.(.((....)).).))
Given back: -28.8

All values here come from the array DNA melting data of Ke et al. (doi:10.1101/2024.01.08.574731).
